# pIC50 per entry
TARGET: FAAH (Homo sapiens, UniProt O00519)
Construct: The full length FAAH was subcloned into the mammalian expression vector, pcDEF.neo; expressed in transfected cells; cDNA from Origene
Sequence (O00519 whole entry): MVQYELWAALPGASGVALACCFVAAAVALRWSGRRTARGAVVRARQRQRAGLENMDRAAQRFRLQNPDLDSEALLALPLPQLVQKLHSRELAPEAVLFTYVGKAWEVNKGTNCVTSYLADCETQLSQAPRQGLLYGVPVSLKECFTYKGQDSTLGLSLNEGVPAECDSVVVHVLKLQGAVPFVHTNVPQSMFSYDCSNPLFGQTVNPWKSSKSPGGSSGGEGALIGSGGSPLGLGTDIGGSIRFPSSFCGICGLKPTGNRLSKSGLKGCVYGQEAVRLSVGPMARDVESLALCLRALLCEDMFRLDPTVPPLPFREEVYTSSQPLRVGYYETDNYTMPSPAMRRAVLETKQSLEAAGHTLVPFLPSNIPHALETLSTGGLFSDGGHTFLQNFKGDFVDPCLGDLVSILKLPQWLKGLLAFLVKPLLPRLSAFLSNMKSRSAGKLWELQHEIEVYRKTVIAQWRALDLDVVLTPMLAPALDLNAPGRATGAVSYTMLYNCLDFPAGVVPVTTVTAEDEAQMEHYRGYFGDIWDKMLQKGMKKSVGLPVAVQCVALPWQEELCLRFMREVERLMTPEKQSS
EXPERIMENT_DESCRIPTION: FAAH enzyme assay, lysate of CHO cells expressing human FAAH
Type: biochemical
APPLIED_CONDITIONS: CHO cell lysate, read-out: Human Lysate
pIC50: −log10 of the molar value.
ASSAY_ENDPOINT: pIC50

[[record]]
structure = "CC(C)(O)c1cnc(-c2nn(-c3ccc(F)cn3)cc2Sc2ccc(Cl)cc2)cn1"
target = "FAAH (Homo sapiens, UniProt O00519)"
value_measured = 7.59

[[record]]
structure = "CS(=O)(=O)c1ccc(-c2c(Sc3ccc(Cl)cc3)cnn2-c2ccc(F)cc2)cc1"
target = "FAAH (Homo sapiens, UniProt O00519)"
value_measured = 6.57

[[record]]
structure = "CS(=O)(=O)c1ccc(-c2nn(-c3ccncc3)cc2Sc2ccc(Cl)cc2)cc1"
target = "FAAH (Homo sapiens, UniProt O00519)"
value_measured = 7.55

[[record]]
structure = "CS(=O)(=O)c1ccc(-c2nn(-c3ccc(F)cc3)cc2Sc2ccc(Cl)cc2)cc1"
target = "FAAH (Homo sapiens, UniProt O00519)"
value_measured = 7.80


Reference for the values: patent US20110144056A1
